Biological target: T1, GFP-9S library array, motif 4 ND N98T;D124P (synthetic construct, N98T;D124P)
T1 chain: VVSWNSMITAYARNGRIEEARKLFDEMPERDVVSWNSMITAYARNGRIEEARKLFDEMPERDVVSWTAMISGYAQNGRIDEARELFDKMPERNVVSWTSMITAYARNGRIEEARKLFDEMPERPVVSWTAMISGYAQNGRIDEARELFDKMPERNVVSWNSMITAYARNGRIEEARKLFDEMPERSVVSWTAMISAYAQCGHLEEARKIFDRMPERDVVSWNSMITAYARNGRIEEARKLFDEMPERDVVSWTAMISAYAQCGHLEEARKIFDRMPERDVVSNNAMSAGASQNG
Assay: high-throughput RNA pulldown from lysate on Ni-NTA beads; HRP: 50 mM Tris pH 8, 150 mM NaCl, 1 mM beta-mercaptoethanol, 50 ug/ml BSA, 3 ug/ml yeast RNA, 0.5% heparin; ITC and FP: Tris pH 8, 200 mM KCl, 5% glycerol; MST: 50 mM Tris pH 8, 200 mM NaCl, 1 mM DTT, BSA, heparin, 0.05% Tween 20
Settings: tags: N-terminal His-eGFP; label: 5' IRDye 800CW
I'd appreciate it if you could supply Kd values for the items below.
One number for each entry, in nM.

Binder	Kd / nM
AUUAAACGUGA (ssRNA) [IR-rpoA-A]	107

Below: the item to evaluate.
Entry under review: AUUAUACGUGA (ssRNA) [IR-rpoA-U] . Reported Kd?
113

These data points were gathered from paper PMC8809517.
